Where these numbers come from: ChEMBL document CHEMBL1128260

tested on: E6SM; assay: The minimum inhibitory concentration required to reduce HSV-1(KOS) virus induced cytopathicity by 50% was measured on E6SM cells; type: functional; conditions: Homo sapiens
MEASUREMENT_TYPE: MIC50 (µg/mL)
Output spec: scalar in µg/mL, unitless text.

## Input Please give measured MIC50 of the following entry: Nc1ncnc2c1ncn2[C@@H]1C=C(CO)[C@@H](O)[C@H]1O
## Output 70

## Input Please give measured MIC50 of the following entry: Nc1ncnc2c1ccn2[C@H]1C[C@@H](O)[C@H](O)[C@@H]1O
## Output 300

====

system: HEL; assay: The minimum inhibitory concentration required to reduce CMV(Davis) virus induced cytopathicity by 50% was measured on HEL cells; assay type: functional; conditions: Homo sapiens
MEASUREMENT_TYPE: MIC50 (µg/mL)
Output spec: scalar in µg/mL, unitless text.

## Input Please give measured MIC50 of the following entry: Nc1ncnc2c1ncn2[C@@H]1C[C@H](O)[C@@H](O)[C@H]1O
## Output 0.03

## Input Please give measured MIC50 of the following entry: Nc1ncnc2c1ncn2[C@@H]1C=C(CO)[C@@H](O)[C@H]1O
## Output 0.4

====

Exercise: for every item that follows, state its recorded MIC50.
tested on: Vero; test: The minimum inhibitory concentration required to reduce Arenavirus (Junin) induced cytopathicity by 50% was measured on Vero cells; format: functional; settings: Chlorocebus sabaeus
Output spec: scalar in µg/mL, unitless text.

## Input Please give measured MIC50 of the following entry: Nc1ncnc2c1ncn2[C@@H]1C[C@H](O)[C@@H](O)[C@H]1O [NORARISTEROMYCIN]
## Output 6

## Input Please give measured MIC50 of the following entry: Nc1ncnc2c1ncn2[C@@H]1C=C(CO)[C@@H](O)[C@H]1O [NEOPLANOCIN A]
## Output 1

====

test system: Vero; test: The minimum inhibitory concentration required to reduce Arenavirus (Tacaribe) induced cytopathicity by 50% was measured on Vero cells; format: functional; conditions: Chlorocebus sabaeus
Exercise: for every item that follows, state its recorded MIC50.
Output spec: scalar in µg/mL, unitless text.

## Input Please give measured MIC50 of the following entry: Nc1ncnc2c1ncn2[C@@H]1C[C@H](O)[C@@H](O)[C@H]1O
## Output 8

## Input Please give measured MIC50 of the following entry: Nc1ncnc2c1ncn2[C@@H]1C=C(CO)[C@@H](O)[C@H]1O
## Output 1

====

Exercise: for every item that follows, state its recorded MIC50.
tested on: HeLa; test: The minimum inhibitory concentration required to reduce Polio-1 virus induced cytopathicity by 50% in HeLa cells; type: functional; conditions: Homo sapiens

## Input Please give measured MIC50 of the following entry: Nc1ncnc2c1ccn2[C@H]1C[C@@H](O)[C@H](O)[C@@H]1O
## Output > 400 µg/mL

## Input Please give measured MIC50 of the following entry: Nc1ncnc2c1ncn2[C@@H]1C=C(CO)[C@@H](O)[C@H]1O
## Output > 40 µg/mL

## Input Please give measured MIC50 of the following entry: Nc1nccc2c1ncn2C1CC(O)C(O)C1O (single isomer, unassigned; (-))
## Output > 400 µg/mL

## Input Please give measured MIC50 of the following entry: Nc1ncnc2c1ncn2[C@@H]1C[C@H](O)[C@@H](O)[C@H]1O
## Output > 400 µg/mL

====

Exercise: for every item that follows, state its recorded MIC50.
tested on: Vero; assay: The minimum inhibitory concentration required to reduce forest virus (ATCC VR-67) induced cytopathicity by 50% in Vero cells; format: functional; conditions: Chlorocebus sabaeus

## Input Please give measured MIC50 of the following entry: Nc1ncnc2c1ncn2[C@@H]1C[C@H](O)[C@@H](O)[C@H]1O
## Output > 400 mg/L

## Input Please give measured MIC50 of the following entry: Nc1nccc2c1ncn2C1CC(O)C(O)C1O (single isomer, unassigned; (-))
## Output > 200 mg/L

## Input Please give measured MIC50 of the following entry: Nc1ncnc2c1ccn2[C@H]1C[C@@H](O)[C@H](O)[C@@H]1O
## Output > 200 mg/L

## Input Please give measured MIC50 of the following entry: Nc1ncnc2c1ncn2[C@@H]1C=C(CO)[C@@H](O)[C@H]1O
## Output 7 mg/L

====

Exercise: for every item that follows, state its recorded minimum cytotoxic concentration (microscopic alteration of cell morphology).
tested on: E6SM; experiment: Tested for concentration required to cause a microscopically detectable alteration of E6SM cell morphology; format: functional; settings: Homo sapiens; read-out: MIC50

## Input Please give measured minimum cytotoxic concentration (microscopic alteration of cell morphology) of the following entry: Nc1nccc2c1ncn2C1CC(O)C(O)C1O (single isomer, unassigned; (-))
## Output > 400 µg/mL

## Input Please give measured minimum cytotoxic concentration (microscopic alteration of cell morphology) of the following entry: Nc1ncnc2c1ncn2[C@@H]1C=C(CO)[C@@H](O)[C@H]1O
## Output 100 µg/mL

## Input Please give measured minimum cytotoxic concentration (microscopic alteration of cell morphology) of the following entry: Nc1ncnc2c1ncn2[C@@H]1C[C@H](O)[C@@H](O)[C@H]1O
## Output > 400 µg/mL

## Input Please give measured minimum cytotoxic concentration (microscopic alteration of cell morphology) of the following entry: Nc1ncnc2c1ccn2[C@H]1C[C@@H](O)[C@H](O)[C@@H]1O
## Output > 400 µg/mL

====

Exercise: for every item that follows, state its recorded MIC50.
tested on: HEL; test: The minimum inhibitory concentration required to reduce VZV(YS) virus induced cytopathicity by 50% was measured on HEL cells; type: functional; conditions: Homo sapiens

## Input Please give measured MIC50 of the following entry: Nc1nccc2c1ncn2C1CC(O)C(O)C1O (single isomer, unassigned; (-))
## Output > 40 µg/mL

## Input Please give measured MIC50 of the following entry: Nc1ncnc2c1ccn2[C@H]1C[C@@H](O)[C@H](O)[C@@H]1O
## Output > 40 µg/mL

## Input Please give measured MIC50 of the following entry: Nc1ncnc2c1ncn2[C@@H]1C[C@H](O)[C@@H](O)[C@H]1O
## Output > 50 µg/mL

## Input Please give measured MIC50 of the following entry: Nc1ncnc2c1ncn2[C@@H]1C=C(CO)[C@@H](O)[C@H]1O
## Output 5 µg/mL

====

tested on: Vero; experiment: Tested for concentration required to cause a microscopically detectable alteration of Vero cell morphology; type: functional; conditions: Chlorocebus sabaeus; read-out: MIC50
MEASUREMENT_TYPE: Minimum cytotoxic concentration

## Input Give reported Minimum cytotoxic concentration for Nc1ncnc2c1ccn2[C@H]1C[C@@H](O)[C@H](O)[C@@H]1O (Vero)
## Output > 400 µg/mL

## Input Give reported Minimum cytotoxic concentration for Nc1nccc2c1ncn2C1CC(O)C(O)C1O (single isomer, unassigned; (-)) (Vero)
## Output > 200 µg/mL

## Input Give reported Minimum cytotoxic concentration for Nc1ncnc2c1ncn2[C@@H]1C[C@H](O)[C@@H](O)[C@H]1O (Vero)
## Output > 400 µg/mL

## Input Give reported Minimum cytotoxic concentration for Nc1ncnc2c1ncn2[C@@H]1C=C(CO)[C@@H](O)[C@H]1O (Vero)
## Output 40 µg/mL

====

Exercise: for every item that follows, state its recorded Minimum cytotoxic concentration (MCC).
system: HEL; assay: Tested for the concentration required to cause a microscopically detectable alteration of HEL cell morphology; assay type: functional; details: Homo sapiens; read-out: MIC50
Output spec: scalar in µg/mL, unitless text.

## Input Give reported Minimum cytotoxic concentration (MCC) for Nc1ncnc2c1ncn2[C@@H]1C[C@H](O)[C@@H](O)[C@H]1O [NORARISTEROMYCIN] (HEL)
## Output 50

## Input Give reported Minimum cytotoxic concentration (MCC) for Nc1ncnc2c1ncn2[C@@H]1C=C(CO)[C@@H](O)[C@H]1O [NEOPLANOCIN A] (HEL)
## Output 20
